# STUDY_TARGET: Carboxy-terminal domain RNA polymerase II polypeptide A small phosphatase 1 (Homo sapiens)
# Sequence (Q9GZU7 whole entry): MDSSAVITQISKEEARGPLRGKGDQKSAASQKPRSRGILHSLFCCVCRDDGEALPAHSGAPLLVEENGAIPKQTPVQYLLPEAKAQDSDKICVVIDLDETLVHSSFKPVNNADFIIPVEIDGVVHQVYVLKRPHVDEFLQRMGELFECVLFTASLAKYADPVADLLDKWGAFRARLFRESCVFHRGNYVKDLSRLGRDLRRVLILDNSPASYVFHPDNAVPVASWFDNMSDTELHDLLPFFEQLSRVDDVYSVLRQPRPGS
# PROCEDURE_TEXT: inhibitors of CTDSP1, concentration-response testing, biochemical assay, absorbance-based, actives from ultra-high-throughput screening (AID 540297)
# Type: functional
The source made the active and inactive calls. Cut-off read from the data, not from the text of the source: actives have a measured IC50 and inactives only a lower limit.

{"columns": ["COMPOUND", "IC50"],
 "data": [
  ["O=C(Nc1cccc([N+](=O)[O-])c1)c1cnccn1", "5.88 µM (active)"],
  ["N#CC1(NC(=O)COc2ccccc2[N+](=O)[O-])CCCCC1", "18.7 µM (active)"],
  ["CC(C)[N+]12CCC(CC1)C(C(O)(c1ccccc1)c1ccccc1)C2 (centres undefined)", "8.96 µM (active)"],
  ["COc1ccc(S(=O)(=O)NCCSC(C)(C)C)c(Cl)c1Cl", "8.61 µM (active)"]
]}

These entries and their values trace back to ChEMBL document CHEMBL1201862.
